tested on: MDA-MB-435; test: NCI tumour cell line growth inhibition, 48 h
The source made the active and inactive calls. No stated cut-off is given here; in the data, active = GI50 up to about 1.1 µM and inactive = higher.
Reported GI50 values for a set of molecules

Past entries and their recorded results:
1. COc1cc(/C=C/C2=NN(c3cccc(S(=O)(=O)O)c3)C3(C2)C(Cl)C(=O)N3c2nc3ccccc3s2)ccc1O (centres undefined) : 17.1 µM (inactive)
2. Cc1ccc(C)c(NC(=O)C(=O)C(c2cnc3ccc([N+](=O)[O-])cc3n2)[N+](=O)[O-])c1 (centres undefined) : 46.2 µM (inactive)
3. O=C1C(O)=C(C(C2=C(O)C(=O)c3ccccc3C2=O)c2ccc(Cl)cc2)C(=O)c2ccccc21 : 1.83 µM (inactive)

Could you now consider this next molecule?
Consider `c1ccc(NN/N=N/c2ccc(-c3nc4ccccc4[nH]3)cc2)cc1` . Its measured GI50 is 19.4 µM (inactive)

----------
test system: MDA-MB-435; assay: NCI tumour cell line growth inhibition, 48 h
Calls of active or inactive are those of the source. Rule as the data show it: active = GI50 up to about 1.1 µM and inactive = higher.
Lab note: assign the record to one of active, inactive

// below: answered compounds
1. C/C(=C\CO)CC/C=C(\C)CNc1ccccc1 : inactive
2. Cc1ccc(Cl)c2c1NC(=O)/C2=N\Nc1ccccc1[N+](=O)[O-] : inactive
3. CC[C@H](C)[C@H](NC(=O)N(CCC#N)CCN(CCN(C(=O)N[C@@H](Cc1ccccc1)C(=O)OC)c1ccccc1)C(=O)N[C@H](C(=O)OC)C(C)C)C(=O)OC : inactive
4. COC(=O)C1CCC(=O)N1C(c1cc(OC)c(OC)c(OC)c1)c1cccc2ccccc12 (stereo unspecified) : inactive
5. N#Cc1cccc2c1Sc1ccccc1N2 : inactive

In: Per the assay record, what outcome was assigned to `CNC(=O)OCCN1c2ccccc2Sc2ccccc21` ?
Out: inactive

In: Per the assay record, what outcome was assigned to `O=C(/C(Cl)=C/c1ccccc1)c1ccccc1` ?
Out: inactive

In: Per the assay record, what outcome was assigned to N#CC(Cc1ccccc1Br)N(CCC1=CCCCC1)C(c1ccccc1)c1ccccc1 (stereo unspecified) ?
Out: inactive

In: Per the assay record, what outcome was assigned to COc1cc(O)c(C(=O)/C=C/c2ccc(O)cc2)cc1Oc1ccc(/C=C/C(=O)c2ccc(O)cc2O)cc1 [RHUSCHALCONE III] ?
Out: inactive

In: Per the assay record, what outcome was assigned to `O=C(NNC(=S)NC1CCCCC1)c1csc(NC(=S)NC2CCCCC2)n1` ?
Out: inactive

In: Per the assay record, what outcome was assigned to CCC(/C=C/C1OC(=O)C=CC1C)=C\C(C)C/C=C/C(C)=C/C(C)C(=O)C(C)C(O)C(C)C/C(C)=C/C(=O)O (stereo unspecified) ?
Out: active

In: Per the assay record, what outcome was assigned to `CCCCCC/C=C\CCCCCCCCCc1cccc(OC)c1O` ?
Out: inactive

In: Per the assay record, what outcome was assigned to `O=C(c1ccccc1Br)C(F)(F)F` ?
Out: inactive

In: Per the assay record, what outcome was assigned to O=C(O)CCC1(C(=O)O)CCC(=O)c2ccccc21 (stereo unspecified) ?
Out: inactive

In: Per the assay record, what outcome was assigned to `O=C(O)Cc1cc(F)ccc1C(=O)O` ?
Out: inactive

In: Per the assay record, what outcome was assigned to `Oc1[nH]c(Nc2cc(Cl)cc(Cl)c2)nc2ncnc1-2` ?
Out: inactive
